B1: Azoarcus group I ribozyme (parent)
chain: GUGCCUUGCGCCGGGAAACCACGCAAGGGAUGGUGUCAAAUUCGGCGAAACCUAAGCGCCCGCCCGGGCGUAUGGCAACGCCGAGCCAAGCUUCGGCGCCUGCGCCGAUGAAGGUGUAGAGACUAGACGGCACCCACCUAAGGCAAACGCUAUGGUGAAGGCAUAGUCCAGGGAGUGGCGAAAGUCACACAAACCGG

# Variants of: B1
# EXPERIMENT NOTES: reverse-splicing fitness (ratio to wild type); higher = more active; in vitro selection; Mg2+ level not given
MEASURED PROPERTY: reverse-splicing fitness
Could you keep your reply to the number by itself?

Would you please look over these solved cases?
[
  {
    "VARIANT NAME": "C82U A111C A120C C150U C169U U176A",
    "reverse-splicing fitness": 0.0178
  },
  {
    "VARIANT NAME": "A120U A145U C150G C169U U176A",
    "reverse-splicing fitness": 0.00679
  }
]

Lookup: Need reverse-splicing fitness of C82U A111C A145U C150G C169A U176A , thanks.
Found: 0.00909

Lookup: Need reverse-splicing fitness of A111G A120G A145C C150U U176G , thanks.
Found: 0.00705

Lookup: Need reverse-splicing fitness of C82G A111C A120G A145U C150G , thanks.
Found: 0.00698

Lookup: Need reverse-splicing fitness of C82U A111C A120G A145C C150A C169G U176C , thanks.
Found: 0.0127

Lookup: Need reverse-splicing fitness of A111G A145G C150U C169A U176A , thanks.
Found: 0.0193
